Listed below: 响应 values for each entry.
- target-of-assay: T1, 人Nectin-4 (human, UniProt Q96NY8 32-349)
- T1 construct: construct not described; also called human Nectin-4; PVRL4
- T1 sequence (looked up): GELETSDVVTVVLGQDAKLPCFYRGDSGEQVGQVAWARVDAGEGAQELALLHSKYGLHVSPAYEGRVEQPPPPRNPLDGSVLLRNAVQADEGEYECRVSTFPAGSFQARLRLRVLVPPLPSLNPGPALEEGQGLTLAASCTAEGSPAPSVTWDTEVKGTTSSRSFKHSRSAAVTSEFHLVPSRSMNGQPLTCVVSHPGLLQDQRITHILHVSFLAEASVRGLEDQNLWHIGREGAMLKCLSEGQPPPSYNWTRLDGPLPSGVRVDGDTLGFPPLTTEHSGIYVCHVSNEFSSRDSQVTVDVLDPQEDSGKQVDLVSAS
- protocol-notes: BLI, VHH-Fc on anti-hIgG Fc probe, human Nectin-4 as analyte
- Design: unit not given here
assay-endpoint: 响应

binder	result-value
CMB7-8 (Fc fusion, Tested as VHH fused to human Fc; also called VHH-Fc; not shown: human Fc fused to the VHH) QVQLVESGGGLVQAGGSLRLSCAASGNIFSVNAMGWFRQAPGKQRELVAAITSGGSIRYVDSVKGRFTISRDNAKNTVYLQMNSLKPEDTAVYYCAAARGEPYEYDYWGQGTLVTVSS	0.915
CMB7-6 (Fc fusion, also called VHH 36; VHH-Fc; not shown: human Fc fused to the VHH) QVQLVESGGGLVQPGGSLRLSCAASGSIFSINVMGWYRQAPGKQRELVATITSGGSVNYADSVKGRFTISRDNANNTVYLQMNTLKPEDTAVYYCTADQLGPLGLLSPTIYWGQGTLVTVSS	0.835
CMB7-19 (Fc fusion, Tested as VHH fused to human Fc; also called VHH-Fc; not shown: human Fc fused to the VHH) QVQLVESGGGLVQAGGSLGLSCAASESIFSYNAMGWFRQAPGKQRELVAAITSGGSIKYADSVKGRFTISRDNAKNTVYLQMNSLKPEDRGVYYCAAMDRTTLEYDYWGQGTLVTVSS	0.867
CMB7-11 (Fc fusion, Tested as VHH fused to human Fc; also called VHH-Fc; not shown: human Fc fused to the VHH) QVQLVESGGGLVQAGGSLRLSCAASGSIFSISAMGWFRQAPGNQREMVAAITKGGSVNYADSVKGRFTITRDNAKNTVYLQMNSLKPEDTAVYYCAAAVGAPFEYDYWGQGTQVTVSS	0.94
